Test: qHTS RealTime-Glo MT Cell Viability Assay in HEK293 cells - 8 hour (AID 1224887); also: top concentration of the series differs between compounds; nearly all actives have a fitted effect of over 50% in size
Settings: RealTime-Glo luminescence; series mostly up to 76.8 µM
Results filed as inconclusive are left out. Activity calls are given as the source filed them. Calls follow the shape of the dose curve; as a rule, active = well fitted cell-killing curve with a large enough effect in the repeat runs; inconclusive = weak or mixed curves, or effect the other way; inactive = flat fitted curve, though single readings scatter.
Pick one: active, inactive

molecule | category
CCCCCCCCCCOC(=O)c1ccccc1C(=O)OCCCCCCCC | inactive

What did this assay record as the result for `C#C[C@]1(O)CC[C@H]2[C@@H]3[C@H](C)CC4=C(CCC(=O)C4)[C@H]3CC[C@@]21C` ?
inactive

Next molecule up: `O=C(Nc1ccc2c(O)c(N=Nc3ccc(N=Nc4ccc(S(=O)(=O)O)cc4)cc3)c(S(=O)(=O)O)cc2c1)c1ccccc1`
inactive

Again, but for `O=c1c(O)c(-c2ccc(O)cc2O)oc2cc(O)cc(O)c12`
inactive

Can you check `Cc1ccc(C(=O)O)cc1` next?
inactive

Next up: `O=C1NC(=O)[C@@H]2CC=CC[C@H]12`
inactive

Item: OC12N=C(c3ccccc3)SC1Cc1cc(Cl)ccc12 (stereo not given)
inactive

Please give the result for `Cc1ccc(C)cc1` too.
inactive

Subsequent entry: OC1CCCc2ccccc21 (stereo not given)
inactive

Next entry: `CC(=O)CC(=O)Nc1ccc(S(=O)(=O)O)cc1`
inactive

Next: `C=CC(=O)OCCOC(=O)C=C`
inactive
